- target under test: human CD33 F21H (human, UniProt P20138 18-364)
- Sequence (P20138 18-364 F21H limits assumed): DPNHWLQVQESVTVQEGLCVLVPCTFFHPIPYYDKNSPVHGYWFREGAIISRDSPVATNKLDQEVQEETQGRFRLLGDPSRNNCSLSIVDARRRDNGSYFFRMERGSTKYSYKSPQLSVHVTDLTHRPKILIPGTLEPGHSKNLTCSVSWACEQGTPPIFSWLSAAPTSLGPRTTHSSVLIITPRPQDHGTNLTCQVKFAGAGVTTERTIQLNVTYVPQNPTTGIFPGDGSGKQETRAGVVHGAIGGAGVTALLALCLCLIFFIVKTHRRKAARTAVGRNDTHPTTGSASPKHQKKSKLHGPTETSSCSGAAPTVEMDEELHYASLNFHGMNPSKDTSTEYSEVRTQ
- assay procedure: flow cytometry, mutant on cells, IgG
Provide the recorded Mean % WT Binding for the entries that follow.
# value in % WT binding; strip the unit string

What value of Mean % WT Binding has been recorded for this entry: Refmab #1 (antibody, human IgG1, V domains shown, Tested in IgG format; human IgG1 (Absolute Antibody hP67.6, Cat. No. Ab00283-10.0); also called hP67.6) VH: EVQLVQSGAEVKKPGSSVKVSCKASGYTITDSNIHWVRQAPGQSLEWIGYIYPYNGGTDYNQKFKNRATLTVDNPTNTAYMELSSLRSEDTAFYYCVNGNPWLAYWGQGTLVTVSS VL: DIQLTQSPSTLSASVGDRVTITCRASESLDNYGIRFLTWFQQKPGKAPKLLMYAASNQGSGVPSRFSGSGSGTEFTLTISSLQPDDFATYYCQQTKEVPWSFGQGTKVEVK
20.6

What value of Mean % WT Binding has been recorded for this entry: Refmab #2 (antibody, human IgG1, V domains shown, Tested in IgG format; human IgG1 Fc silent (PG-LALA)) VH: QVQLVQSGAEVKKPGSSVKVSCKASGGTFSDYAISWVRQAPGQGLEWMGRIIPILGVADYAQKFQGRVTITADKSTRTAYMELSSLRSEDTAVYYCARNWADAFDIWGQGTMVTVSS VL: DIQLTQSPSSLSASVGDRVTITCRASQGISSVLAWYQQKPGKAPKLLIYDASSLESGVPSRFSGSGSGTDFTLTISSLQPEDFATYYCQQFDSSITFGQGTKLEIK
117

What value of Mean % WT Binding has been recorded for this entry: Refmab #4 (antibody, human IgG1, V domains shown, Tested in IgG format; human IgG1 Fc silent (PG-LALA)) VH: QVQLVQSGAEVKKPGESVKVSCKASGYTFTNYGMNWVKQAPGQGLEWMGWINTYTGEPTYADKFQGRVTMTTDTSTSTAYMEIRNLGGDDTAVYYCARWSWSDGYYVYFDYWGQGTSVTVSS VL: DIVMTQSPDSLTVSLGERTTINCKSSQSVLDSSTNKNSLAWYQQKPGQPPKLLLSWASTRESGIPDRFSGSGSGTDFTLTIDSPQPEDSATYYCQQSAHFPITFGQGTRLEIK
123

What value of Mean % WT Binding has been recorded for this entry: Refmab #3 (antibody, human IgG1, V domains shown, Tested in IgG format; human IgG1 Fc silent (PG-LALA)) VH: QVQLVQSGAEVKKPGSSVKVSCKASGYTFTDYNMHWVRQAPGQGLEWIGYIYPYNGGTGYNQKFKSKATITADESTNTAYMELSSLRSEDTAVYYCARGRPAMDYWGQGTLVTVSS VL: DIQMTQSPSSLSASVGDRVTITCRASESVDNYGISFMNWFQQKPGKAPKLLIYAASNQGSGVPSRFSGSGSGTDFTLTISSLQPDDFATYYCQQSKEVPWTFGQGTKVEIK
1.4
